The origin of these recorded values is the supplement of paper PMC10567573.

Reported protein stability index is given for each of the following variants.
B1: TRIM15 (parent)
chain: LSQMGAQSSGKILLCPLCQEEEQA

Variants of: B1
TEST_DESCRIPTION: protein stability index of a GFP-peptide fusion (GPS, HEK-293T) (PSI 1-6); higher = more stable;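 further: lentivirally expressed fusions sorted by FACS into six bins by GFP to DsRed ratio, PSI derived from sequencing read proportions per bin multiplied by bin number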
CONDITION_SUMMARY: c terminus: a fixed tail appended
Give the figure by itself; no unit, no explanation.

mutation_descriptor=S9M recorded_value=2.57
mutation_descriptor=K11S recorded_value=3.79
mutation_descriptor=Q7T recorded_value=3.99
mutation_descriptor=L13M recorded_value=4.74
mutation_descriptor=C15L recorded_value=3.9
mutation_descriptor=M4P recorded_value=4.94
mutation_descriptor=E20V recorded_value=2.79
mutation_descriptor=C18Y recorded_value=4.27
mutation_descriptor=E21A recorded_value=3.22
mutation_descriptor=Q3W recorded_value=2.23

Per the record, G10R has protein stability index of 3.22

Per the record, S9W has protein stability index of 2.96

Per the record, I12S has protein stability index of 4.57

Per the record, C18D has protein stability index of 5.2

Per the record, K11E has protein stability index of 3.11

Per the record, M4V has protein stability index of 2.81

Per the record, L13H has protein stability index of 5.52

Per the record, C15R has protein stability index of 4.43

Per the record, C18N has protein stability index of 4.38

Per the record, A24R has protein stability index of 2.99

Per the record, Q7E has protein stability index of 3.52

Per the record, Q23Y has protein stability index of 3.09

Per the record, E22F has protein stability index of 2.6

Per the record, E20L has protein stability index of 2.82

Per the record, G10Y has protein stability index of 2.83

Per the record, Q7P has protein stability index of 3.15

Per the record, Q19E has protein stability index of 4.01
